System: HS 578T breast
Test: NCI-60 one-dose screen, 48 h
Details: 10 µM unless noted
About 83,000 compounds went through this panel and 20% of them were active in at least one assay; those are over-represented in the sample as a whole. Activity calls are given as the source filed them. The calls were made as follows: active = growth percent below 10; inactive = the rest.
Form entry, call: pick from active, inactive

Sample answers from the record:
compound	test.target	assigned.class
c1ccc(CCNc2c3ccccc3nc3ccccc23)cc1	HS 578T breast	inactive
O=S(=O)(NCCCNc1nccc(-c2c(-c3cccc(F)c3)nc3occn23)n1)c1ccc(F)cc1	HS 578T breast	inactive
CN1CCN(Cc2ccc(NC(=O)c3cncc(C#Cc4cnc(N)c5ccc(F)cc45)c3)cc2C(F)(F)F)CC1	HS 578T breast	inactive

Q: Hi, sorry to bother you, what did the test record for C=CCn1c(SCC(=O)Nc2ccc(/C(C)=N/O)cc2)nnc1-c1cc(-c2ccc(S(N)(=O)=O)cc2)nc2ccccc12 ?
Result: inactive

Q: Would you mind telling me which call this test gave CC(=O)O[C@H]1C[C@@H]2C(C)(C)C(=O)CC[C@@]2(C)c2ccc(C(C)C)cc21 ?
Result: inactive

Q: Dear all, I need the recorded test outcome for Cc1ccc(S(=O)(=O)c2nc(-c3ccccc3)oc2Sc2nc3ccccc3s2)cc1 , thank you.
Result: inactive

Q: Identify the outcome logged in this assay for the compound shown: CCNc1ccc(-c2nc3ccccc3n3cccc23)cc1
Result: inactive

Q: Kindly provide the recorded test outcome for the following compound: NNCCc1ccc(NC(=O)CCCc2ccc(C(=O)Nc3ccccc3N)cc2)cc1
Result: inactive
